Assayed System: Neuronal acetylcholine receptor subunit alpha-7 (Homo sapiens, UniProt P36544)
Sequence (P36544 whole entry): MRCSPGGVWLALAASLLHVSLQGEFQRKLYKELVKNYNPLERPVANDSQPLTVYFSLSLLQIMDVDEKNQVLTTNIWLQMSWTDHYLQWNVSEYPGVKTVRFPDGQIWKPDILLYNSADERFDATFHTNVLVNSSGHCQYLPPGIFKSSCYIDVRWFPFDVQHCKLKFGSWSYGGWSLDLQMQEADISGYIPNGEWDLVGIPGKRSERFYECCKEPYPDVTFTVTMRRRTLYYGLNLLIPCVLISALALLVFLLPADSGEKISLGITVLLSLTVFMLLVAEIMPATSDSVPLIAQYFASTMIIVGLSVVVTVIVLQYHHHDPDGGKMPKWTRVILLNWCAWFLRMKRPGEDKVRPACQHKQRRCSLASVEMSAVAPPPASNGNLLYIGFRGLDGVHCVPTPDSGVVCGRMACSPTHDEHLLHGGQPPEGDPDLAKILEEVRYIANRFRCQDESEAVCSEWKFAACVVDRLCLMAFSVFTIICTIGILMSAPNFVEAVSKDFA
Measurement Description: Partial agonist activity at human alpha7 nAChR expressed in Xenopus laevis oocytes assessed as inhibition of Ach response at 10 to 30 uM at -60 mV holding potential by measuring net charge preincubated with compound followed by Ach addition by two electrode voltage-clamp assay
Type: cell-based
Protocol Conditions: Oocyte, filed as partial agonist, dose 10-30 µM
Calls of active or inactive are those of the source. The calls are words filed in the database; no cut-off is given here.
Assay Endpoint: Activity

[[record]]
smiles_str = "O=C(c1ccc(-c2ccoc2)o1)N1CCN2CCC1CC2"
observed_result = "Active"

[[record]]
smiles_str = "Nc1cccc(-c2ccc(C(=O)N3CCN4CCC3CC4)o2)c1"
observed_result = 0.5

[[record]]
smiles_str = "O=C(c1ccc(-c2cccc(F)c2)o1)N1CCN2CCC1CC2"
observed_result = "Active"

[[record]]
smiles_str = "O=C(c1ccc(-c2cncc3ccccc23)o1)N1CCN2CCC1CC2"
observed_result = 0.94

[[record]]
smiles_str = "O=C(c1ccc(-c2ccc3ccccc3c2)o1)N1CCN2CCC1CC2"
observed_result = 1.18

[[record]]
smiles_str = "O=C(c1ccc(-c2cccc(I)c2)o1)N1CCN2CCC1CC2"
observed_result = "Active"

[[record]]
smiles_str = "Cc1cccc(-c2ccc(C(=O)N3CCN4CCC3CC4)o2)c1"
observed_result = 0.2

[[record]]
smiles_str = "O=C(c1ccc(-c2ccccc2)o1)N1CCN2CCC1CC2"
observed_result = 0.14

[[record]]
smiles_str = "O=C(c1ccc(-c2ccc(C(F)(F)F)cc2)o1)N1CCN2CCC1CC2"
observed_result = 0.64

[[record]]
smiles_str = "O=C(c1ccc(-c2cccc(C(F)(F)F)c2)o1)N1CCN2CCC1CC2"
observed_result = 0.19

[[record]]
smiles_str = "O=C(c1ccc(-c2cccc(Br)c2)o1)N1CCN2CCC1CC2"
observed_result = "Active"


Attribution: ChEMBL document CHEMBL4765428
